# EXPERIMENTAL TARGET: IRAK4 (Homo sapiens (Human), UniProt Q9NWZ3)
# Sequence (Q9NWZ3 whole entry): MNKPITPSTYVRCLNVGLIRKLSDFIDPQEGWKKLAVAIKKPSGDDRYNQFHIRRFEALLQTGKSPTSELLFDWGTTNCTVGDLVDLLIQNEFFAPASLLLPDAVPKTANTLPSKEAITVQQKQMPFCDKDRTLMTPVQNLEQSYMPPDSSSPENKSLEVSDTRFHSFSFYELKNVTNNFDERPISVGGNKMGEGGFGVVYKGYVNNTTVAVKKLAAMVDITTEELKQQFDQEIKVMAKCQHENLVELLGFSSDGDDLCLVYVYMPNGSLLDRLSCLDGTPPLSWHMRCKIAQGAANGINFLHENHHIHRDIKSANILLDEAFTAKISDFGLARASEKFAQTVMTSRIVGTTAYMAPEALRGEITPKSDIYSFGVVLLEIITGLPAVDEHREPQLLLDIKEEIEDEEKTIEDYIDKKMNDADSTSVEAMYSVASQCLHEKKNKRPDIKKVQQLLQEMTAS
# ASSAY SUMMARY: IRAK4 degradation in human whole blood monocyte - flow cytometry
# Type: cell-based
# ASSAY CONDITIONS: read-out: IRAK4 degradation in whole blood monocyte-Flow cytometry: Average external Abs IC50
VALUE TYPE: DC50

Solved cases (2 shown):
[[record]]
compound = "NC(=O)c1nn([C@H]2CC[C@H](CNCCCOCCCc3cccc4c3oc(=O)n4C3CCC(=O)NC3=O)CC2)cc1NC(=O)c1coc(-c2ccnc(NCC(F)(F)F)c2)n1 (stereo partly drawn) [I-12]"
value_type = "DC50"
recorded_value = "500 to 1000 nM"

[[record]]
compound = "Cn1c(=O)n(C2CCC(=O)NC2=O)c2cccc(CCCOCCOCCNC(=O)[C@H]3CC[C@H](n4cc(NC(=O)c5coc(-c6ccnc(NCC7CC7)c6)n5)c(C(F)F)n4)CC3)c21 (stereo partly drawn) [I-1]"
value_type = "DC50"
recorded_value = "100 to 500 nM"


Let us examine a further case.
Answer with DC50 of CN(C[C@@H]1CN(CCCc2ccc3c(c2)n(C)c(=O)n3C2CCC(=O)NC2=O)CCO1)C[C@H]1CC[C@H](n2cc(NC(=O)c3coc(-c4ccnc(NCC5CC5)c4)n3)c(C(C)(C)O)n2)CC1 (stereo partly drawn) [I-33] measured for IRAK4 (Homo sapiens (Human), UniProt Q9NWZ3). 500 to 1000 nM

Data origin: patent US11352350B2
